Test system: rodent lifetime carcinogenesis bioassay, tumor incidence TD50
Experiment: carcinogenic potency in animals, long-term in vivo studies, CPDB compilation (AID 1745844)
Details: mouse; strain B6C3F1; females; inhaled; site: liver; lesion: hemangioma + hemangiosarcoma; dosed 95 weeks; study length 95 weeks
quantity-name: TD50

Given item `FC(F)=C(F)F` , the value recorded as its TD50 is 61.3 mg/kg/day

###

Tested on: rodent lifetime carcinogenesis bioassay, tumor incidence TD50
Assay: carcinogenic potency in animals, long-term in vivo studies, CPDB compilation (AID 1745844)
Details: monkey; strain Rhesus [Macaca mulatta]; both sexes; in feed; site: lung; lesion: alveolar/bronchiolar carcinoma; dosed 258 weeks; study length 1019 weeks
quantity-name: TD50 (mg/kg/day)
Your answer should be a plain number; it is taken to be in mg/kg/day.

Given item `CN(C)c1ccc(N=Nc2ccccc2)cc1` , the value recorded as its TD50 is 4.84

###

Test system: rodent lifetime carcinogenesis bioassay, tumor incidence TD50
Experiment: carcinogenic potency in animals, long-term in vivo studies, CPDB compilation (AID 1745844)
Details: mouse; strain B6C3F1; males; in feed; site: any site (literature study); lesion: several types; types named in the paper; dosed 103 weeks; study length 111 weeks
quantity-name: TD50 (mg/kg/day)
Your answer should be a plain number; it is taken to be in mg/kg/day.

Fill in: rodent lifetime carcinogenesis bioassay, tumor incidence TD50 TD50 for `Nc1cc(Cl)c(N)c(Cl)c1` = 1730

###

Test system: rodent lifetime carcinogenesis bioassay, tumor incidence TD50
Experiment: carcinogenic potency in animals, long-term in vivo studies, CPDB compilation (AID 1745844)
Details: mouse; strain Crj:BDF1; males; inhaled; site: lung; lesion: alveolar/bronchiolar carcinoma; dosed 104 weeks; study length 104 weeks
quantity-name: TD50 (mg/kg/day)
Your answer should be a plain number; it is taken to be in mg/kg/day.

Given item `ClC(Cl)Cl` , the value recorded as its TD50 is 3530

###

System: rodent lifetime carcinogenesis bioassay, tumor incidence TD50
Assay: carcinogenic potency in animals, long-term in vivo studies, CPDB compilation (AID 1745844)
Conditions: mouse; strain BDF1; females; inhaled; site: Harderian gland; lesion: adenoma; dosed 104 weeks; study length 104 weeks
quantity-name: TD50

Given item `C=C(C)CCl` , the value recorded as its TD50 is 665 mg/kg/day

###

Test system: rodent lifetime carcinogenesis bioassay, tumor incidence TD50
Assay: carcinogenic potency in animals, long-term in vivo studies, CPDB compilation (AID 1745844)
Settings: mouse; strain B6C3F1; males; in feed; site: all sites + liver; lesion: hemangioma + hemangiosarcoma + hepatocellular carcinoma; dosed 78 weeks; study length 95 weeks
quantity-name: TD50 (mg/kg/day)
Your answer should be a plain number; it is taken to be in mg/kg/day.

Given item `Cc1ccc([N+](=O)[O-])cc1N` , the value recorded as its TD50 is 269

###

System: rodent lifetime carcinogenesis bioassay, tumor incidence TD50
Assay: carcinogenic potency in animals, long-term in vivo studies, CPDB compilation (AID 1745844)
Details: mouse; strain B6C3F1; females; inhaled; site: lung; lesion: carcinoma; dosed 26 weeks; study length 104 weeks
quantity-name: TD50 (mg/kg/day)
Your answer should be a plain number; it is taken to be in mg/kg/day.

Given item `ClCCl` , the value recorded as its TD50 is 1650
